- Test system: Leishmania donovani
- TEST_METHOD_NOTES: Leishmania intramacrophage assay
- Type: functional, organism-based
- Design: scale not given: in the data most compounds retested in dose-response had high values
- CONDITION_SET: 30.3 µM; […]
The campaign covered roughly 69,000 compounds. About 1,000 (1.4%) showed an effect of 50% or more. This is one part of a sample in which strong results are shown more often than they occur.
Assignment: determine reported Percent Effect for the given compounds.

>>> reported_value("CC(=O)Nc1cccc(-c2ccccc2CCN)c1")
"-35.33%"
>>> reported_value("COc1ccc(-c2ccccc2CCN)c(OC)c1")
"75.35%"
>>> reported_value("CN(CC1Cc2ccccc2CN1C)C(=O)Cc1cccs1 (stereo unspecified)")
"58.51%"
>>> reported_value("CCN1CC2(CC1=O)CN(Cc1ccccn1)CCN(C(C)=O)C2.O=C(O)C(F)(F)F.O=C(O)C(F)(F)F (stereo unspecified)")
"0.8966%"
>>> reported_value("CN(C)CCN1CCN(Cc2cccs2)Cc2cccnc21.O=C(O)C(F)(F)F.O=C(O)C(F)(F)F.O=C(O)C(F)(F)F")
"-2.293%"

Continue with the next compound.
Quick note, Percent Effect for CN1CCCCC1c1cncc(Cl)n1.Cl (stereo unspecified) landed at 9.533%

* * *

- Tested on: Leishmania donovani
- TEST_METHOD_NOTES: Leishmania intramacrophage assay
- Type: functional, organism-based
- Parameters: scale not given: in the data most compounds retested in dose-response had high values
- CONDITION_SET: 30 µM; 30.03 µM
Screen size: about 69,000 compounds; about 1,000 (1.4%) showed an effect of 50% or more. The list comes from a sample in which strong results are over-represented; it also holds close analogues and randomly drawn compounds.
ENDPOINT_LABEL: Percent Effect (%)
Numbers only, in %.

Give Percent Effect for each of the items listed below.
1. c1ccc(N2CCCC3(CCN(Cc4nccs4)C3)C2)nc1 (stereo unspecified)
2. Cc1noc(C)c1CN1CC[C@H]2C[C@@H](c3nccs3)O[C@@H]2C1
3. Cc1ccc(N2CCO[C@H]3CN(Cc4ccncc4)C[C@H]32)nn1.O=C(O)C(F)(F)F.O=C(O)C(F)(F)F.O=C(O)C(F)(F)F
4. O=C(O)C(F)(F)F.O=C(O)C(F)(F)F.O=C(O)C(F)(F)F.c1ccc(CN2C[C@@H]3OCCN(c4ncccn4)[C@@H]3C2)nc1
5. Cl.O=C1CC2(CCCNC2)C(=O)N1Cc1ccccc1 (stereo unspecified)
6. CN(C)c1nccc(N2CCO[C@H]3CN(Cc4ccsc4)C[C@H]32)n1.O=C(O)C(F)(F)F
7. Cc1cc(CN2C[C@@H]3COC[C@]3(CN(C)C)C2)no1.O=C(O)C(F)(F)F.O=C(O)C(F)(F)F

(A)
1: 40.77; 2: 15.1; 3: 16.14; 4: -0.09782; 5: 10.36; 6: 28.84; 7: -27.07

Give Percent Effect for each of the items listed below.
1. Cl.NC(=O)N1CC2(CCNCC2)c2cc(Cl)ccc21
2. CN1C(=O)C2(CCN(CC3CC3)CC2)c2ccccc21.O=C(O)C(F)(F)F
3. Cn1cc(N2CCC3(CCN(Cc4cccnc4)C3)C2=O)cn1.O=C(O)C(F)(F)F.O=C(O)C(F)(F)F (stereo unspecified)
4. Cl.Cl.c1cc(COC[C@@H]2CCC[C@@]23CNCCO3)ccn1
5. CCN1C[C@H]2[C@@H](C1)N(S(=O)(=O)c1cccnc1)CC[C@H]2OC.O=C(O)C(F)(F)F.O=C(O)C(F)(F)F
6. Cl.O=C(N[C@H]1CN[C@H]2CCCO[C@H]21)c1cscn1
7. O=C(NC[C@]12COC[C@H]1CN(Cc1cccnc1)C2)c1ccno1.O=C(O)C(F)(F)F.O=C(O)C(F)(F)F

(A)
[2.936, 16.21, -14.07, 8.265, -25.11, 25.22, 19.24]

Give Percent Effect for each of the items listed below.
1. Cl.Cl.NC[C@H]1[C@H]2CN(Cc3ccccc3)C[C@@H]12
2. C[C@@H]1C(=O)NC[C@H]2CN(Cc3ccsc3)C[C@H]21.O=C(O)C(F)(F)F

(A)
[3.608, 28.53]
